Value source: PubChem BioAssay AID1159580

- assayExplanation: chemical genetic growth profiling, strain panel (AID 1159580);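 note: tested at 20 µM; growth read once vehicle control cultures reached saturation at 30 °C; 1 = growth at the plate median or of vehicle wells; lower values mean less growth of the strain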
- measurementSetup: S. cerevisiae deletion strains, growth OD, locus YHR013C, strain ard1
The whole screen tested about 5,500 compounds, of which about 2,000 (36%) were called active. Not shown: some 18% with an inconclusive outcome. Cut-off read from the data, not from the text of the source: active = normalized growth mostly below about 0.91 (no sharp cut-off); inconclusive = no clear call, values can overlap the other calls; inactive = mostly above about 0.92. The list shows a part of the results.
Response enum: YES (active), NO (inactive)

Recorded results for 4 molecules are shown here.
molecule	discreteLabel
O=c1cc(-c2ccccc2)oc2c(O)c(O)ccc12	NO
C=C[C@H]1CN2CC[C@H]1C[C@@H]2[C@H](O)c1ccnc2ccccc12	NO
CN(C)CCOC(=O)C(c1ccccc1)C1(O)CCCC1 (configuration not stated)	NO
Nc1cc(-c2ccncc2)c[nH]c1=O	YES

Moving on to another molecule below.
Fill in: this test's call for COc1cc([C@@H]2c3cc4c(cc3[C@H](OC(C)=O)[C@H]3COC(=O)[C@@H]23)OCO4)cc(OC)c1OC is ___
NO

###

- assayExplanation: chemical genetic growth profiling, strain panel (AID 1159580)
- measurementSetup: S. cerevisiae deletion strains, growth OD, locus YNL224C, strain SQS1, active compounds read low
Out of some 5,500 compounds screened, about 2,000 (36%) were called active. About 18% were inconclusive and are not listed. Some of the results follow.
parameterMeasured: normalized growth

Below: 6 compounds and their reported normalized growth.
In [3]: df
Out[3]:
                                   compound            result
0                CNCCCN1c2ccccc2CCc2ccccc21  0.998 (inactive)
1    COc1ccc(CCN(C)CCc2ccc(OC)c(OC)c2)cc1OC   1.01 (inactive)
2               C[C@H](N)CN1CCc2ccc(Br)cc21   1.01 (inactive)
3  COc1c2c(nc3ccccc13)OC(C(C)(O)CO)C2 (configuration not stated)   1.01 (inactive)
4              N[C@H](CCCCCP(=O)(O)O)C(=O)O      1 (inactive)
5  CC(CN(C)C)CN1c2ccccc2CCc2ccccc21 (configuration not stated)   1.01 (inactive)

Pending compound:
Give its normalized growth value. Item: CC(CN1c2ccccc2Sc2ccccc21)N(C)C (configuration not stated)
1.01 (inactive)

###

// reported normalized growth per item
- assayExplanation: chemical genetic growth profiling, strain panel (AID 1159580)
- measurementSetup: S. cerevisiae deletion strains, growth OD, locus YNL233W, strain BNI4, active compounds read low
Screen size: about 5,500 compounds; about 2,000 (36%) were called active. Inconclusive results (about 18%) are left out. Some of the results follow. Where a SMILES comes first, the peptide text is derived from it.
Reply with the value as a number alone.

Some solved entries appear below for comparison.
                                   compound  readoutnumber
0  NCCCCC(N)C(=O)NC(Cc1ccc(O)cc1)C(=O)NC(CCCCN)C(=O)O (stereo not drawn) (H-Lys-Tyr-Lys-OH; configuration not given here)           1.04
1  CC1(C)C(=O)C=C[C@@]2(C)C1CC(=O)[C@@]1(C)C3=CC(=O)O[C@@H](c4ccoc4)[C@]3(C)CCC12 (some centres not stated)           1.02
2                  CN(C)N=Nc1nc[nH]c1C(N)=O              1

Look up normalized growth: S=P(N1CC1)(N1CC1)N1CC1
0.998

Please give the measured normalized growth for this compound: O=C(O)CCCOc1ccc(Cl)cc1Cl
0.971

Which normalized growth reading was recorded for the compound CN(C)CCC(c1ccc(Br)cc1)c1ccccn1 (configuration not stated) ?
0.988

What measured normalized growth goes with NC(N)=NCCCC(NC(=O)C(N)Cc1ccc(O)cc1)C(=O)O (configuration not stated) ?
1

Please report the recorded normalized growth for CCCC(CCC)C(=O)O .
0.977

What does the data say about its normalized growth? Entry: Cc1cc(C)cc(OCC2CNC(=O)O2)c1 (configuration not stated)
1

Entry OC1=Cc2c(O)cc(O)cc2OC1(O)c1ccc(O)c(O)c1 (configuration not stated) : reported normalized growth = ?
0.998

Would you kindly share the measured normalized growth for CN(C)CCOC(=O)C(c1ccccc1)C1(O)CCCC1 (configuration not stated) ?
1.01

# query: normalized growth of entry COC(=O)CCC(=O)O[C@H]1CCC2(C)C(CCC3C2C(=O)[C@@H](O)C2(C)C3CC3OC4(CCC(C)CO4)[C@@H](C)C32)C1 (some centres not stated)
1

Item C[C@H](CCC(=O)O)[C@H]1CCC2C3C(CC[C@@]21C)[C@@]1(C)CC[C@@H](O)C[C@H]1C[C@H]3O (some centres not stated) has what recorded normalized growth?
1.05

So what's the measured normalized growth for this one? O=C(O)c1ccccc1C(=O)Nc1ccc(S(=O)(=O)Nc2nccs2)cc1
1.01

Suppose we examine the compound COc1c2ccccc2nc2occc12 ; what normalized growth value has been reported?
0.888

# query: normalized growth of entry COc1cc(S(C)=O)ccc1-c1nc2ncccc2[nH]1 (configuration not stated)
0.995

Which normalized growth is reported for this compound? COc1c2ccoc2nc2c(OC)c(OCC(O)C(C)(C)O)ccc12 (configuration not stated)
1.02

For the compound COc1cc(OC)c2c3c1C(=O)c1c(OC)cc(C)c4c(OC)cc(c-3c14)C(C)(C)C2=O , what normalized growth is on record?
1.01

Consider the compound shown here: COc1ccc(C(=O)N2CCCC2=O)cc1 What is its recorded normalized growth?
0.99

Using the record for O=C(Nc1ccccc1)Nc1ccccc1 , report its normalized growth.
1.05

Quick one: normalized growth for C[C@]12C=CC(=O)C=C1CCC1C3C[C@@H](O)[C@](O)(C(=O)CO)[C@@]3(C)C[C@H](O)[C@@]12F (some centres not stated) ?
1.01

I'd like to know its normalized growth. The compound in question is COc1ccc(C(=O)CC(=O)c2ccc(C(C)(C)C)cc2)cc1
0.995

###

- assayExplanation: chemical genetic growth profiling, strain panel (AID 1159580);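 note: tested at 20 µM; growth read once vehicle control cultures reached saturation at 30 °C; 1 = growth at the plate median or of vehicle wells; lower values mean less growth of the strain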
- measurementSetup: S. cerevisiae deletion strains, growth OD, locus YDR318W, strain mcm21, active compounds read low
Among all 5,500 compounds or so, about 2,000 (36%) were called active. Not shown: some 18% with an inconclusive outcome. This is one part of the list.
In this section we review reported normalized growth values for a set of compounds.

The cases that follow already have their normalized growth on record.
In [3]: df
Out[3]:
                                   compound  parametermeasured            result
0  CCN(CC)C(C)CN1c2ccccc2Sc2ccccc21 (stereo unspecified)  normalized growth  0.926 (inactive)
1  O=c1cc(-c2cc(O)c(O)c(O)c2)oc2cc(O)cc(O)c12  normalized growth  0.995 (inactive)
2  CC(CN(C)C)CN1c2ccccc2Sc2ccccc21 (stereo unspecified)  normalized growth  0.974 (inactive)
3                     COc1cc(OC)c(OC)cc1C=O  normalized growth  0.994 (inactive)
4                              NNCCc1ccccc1  normalized growth  0.991 (inactive)
5                                   NC(N)=O  normalized growth  0.998 (inactive)
6  CN(C(=O)CN(CCO)CC(=O)N(C)C(C)(C)Cc1ccccc1)C(C)(C)Cc1ccccc1  normalized growth  0.979 (inactive)
7         O=c1cc(-c2ccccc2)oc2c(O)c(O)ccc12  normalized growth  0.991 (inactive)

Fill in the blank: the reported normalized growth of CC(CN(C)C)CN1c2ccccc2CCc2ccccc21 (stereo unspecified) is ____.
1.02 (inactive)

Looking for the measured normalized growth of CNCCCN1c2ccccc2CCc2ccccc21 , can you help?
0.993 (inactive)

Query: normalized growth; subject: O=C(O)c1ccccc1C(=O)Nc1ccc(S(=O)(=O)Nc2nccs2)cc1
0.999 (inactive)

###

- assayExplanation: chemical genetic growth profiling, strain panel (AID 1159580);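 note: tested at 20 µM; growth read once vehicle control cultures reached saturation at 30 °C; 1 = growth at the plate median or of vehicle wells; lower values mean less growth of the strain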
- measurementSetup: S. cerevisiae deletion strains, growth OD, locus YOR329C, strain SCD5, active compounds read low
Out of some 5,500 compounds screened, about 2,000 (36%) were called active. Inconclusive results (about 18%) are left out. The list shows a part of the results.
Met if normalized growth is below 0.9. Not met if not; exact matches included in Not met.

normalized growth under 0.9? Item: O=C(Nc1cccc2ccccc12)c1ccccc1O
Met

Hi there! Is normalized growth for S=C(Nc1cc(Cl)c(Cl)cc1Cl)Nc1ccccc1Br below 0.9, do you know?
Not met

###

- assayExplanation: chemical genetic growth profiling, strain panel (AID 1159580);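 note: tested at 20 µM; growth read once vehicle control cultures reached saturation at 30 °C; 1 = growth at the plate median or of vehicle wells; lower values mean less growth of the strain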
- measurementSetup: S. cerevisiae deletion strains, growth OD, locus YKL009W, strain mrt4, active compounds read low
Out of some 5,500 compounds screened, about 2,000 (36%) were called active. Not shown: some 18% with an inconclusive outcome. The list shows a part of the results.
Sorting guide: entries reporting normalized growth beneath 1 go in the true (1) pile, the rest go in the false (0) pile.

Use the examples below as a reference point.
compound	discreteLabel
CCN(CC)CCOC(=O)C(c1ccccc1)c1ccccc1	true (1)
Nc1ccncc1	false (0)
CCCCCC1C(=O)CCC1CC(=O)OC (configuration not stated)	true (1)
Cc1nc2sccn2c(=O)c1CCN1CCC(=C(c2ccc(F)cc2)c2ccc(F)cc2)CC1	true (1)

Please turn your attention to the following entry.
API: query returns whether the compound falls strictly under 1 in normalized growth. Query: Clc1ccc2c(c1)C(N1CCNCC1)=Nc1ccccc1O2
true (1)
